Assignment: determine reported Population Mitochondria Different-Phenotype (%) for the given compounds.
- System: HEK-293T
- test_summary: Multiplex assay against HEK293T
- Assay type: toxicity, cell-based
- condition_set: human, 12 h, 1 µM, compound concentration 1 uM, replicate 1
Respond with the bare value in %.

The compound listed as CCCCCC(O)/C=C/[C@H]1C(=O)CC(O)C1C/C=C\CCCC(=O)O (stereo not given in full) shows Population Mitochondria Different-Phenotype (%) equal to 44

The compound listed as Cc1onc(-c2ccccc2Cl)c1C(=O)N(C)c1ccc(Cl)cc1 shows Population Mitochondria Different-Phenotype (%) equal to 41

The compound listed as Cc1c(CC(=O)O)c2cccnc2n1Cc1ccc(S(C)(=O)=O)cc1C(F)(F)F [FEVIPIPRANT] shows Population Mitochondria Different-Phenotype (%) equal to 32

The compound listed as C[C@H](N)COC(=O)[C@@H](CCCCN)NC(=O)Cc1c(-c2ccc3ccccc3c2)[nH]c2c1ccc1ccccc12 shows Population Mitochondria Different-Phenotype (%) equal to 37

The compound listed as N#Cc1cc(F)cc(-c2nc(-c3ccc(F)cn3)no2)c1 shows Population Mitochondria Different-Phenotype (%) equal to 41

The compound listed as COc1ccccc1N1CCN(C[C@@H](C(=O)NC(C)(C)C)c2ccccc2)CC1.Cl.Cl shows Population Mitochondria Different-Phenotype (%) equal to 48

The compound listed as Cc1sc2c(c1C)C(c1ccc(Cl)cc1)=N[C@@H](CC(=O)NCCCCCCCCNC(=O)COc1cccc3c1C(=O)N(C1CCC(=O)NC1=O)C3=O)c1nnc(C)n1-2 (stereo not given in full) shows Population Mitochondria Different-Phenotype (%) equal to 73

The compound listed as CC[C@@H](C)Nc1nc(C)nc2c(-c3ccc(OC)nc3C)c(C)nn12 [PEXACERFONT] shows Population Mitochondria Different-Phenotype (%) equal to 45

The compound listed as COC[C@@H](c1ccc(C(F)(F)F)cc1)N1CCN(C2(C)CCN(C(=O)c3c(C)ncnc3C)CC2)C[C@@H]1C.O=C(O)/C=C\C(=O)O [VICRIVIROC MALEATE] shows Population Mitochondria Different-Phenotype (%) equal to 47

The compound listed as CCc1cc2cc(NS(=O)(=O)c3ccc(C#N)cc3)ccc2n(CC)c1=O shows Population Mitochondria Different-Phenotype (%) equal to 37

====

- Tested on: HEK-293T
- test_summary: Multiplex assay against HEK293T
- Type: toxicity, cell-based
- condition_set: human, 12 h, 1 µM, compound concentration 1 uM, replicate 2
Assignment: determine reported Population Healthy Nuclei (%) for the given molecules.
Respond with the bare value in %.

The molecule listed as Cc1c(CC(=O)O)c2cccnc2n1Cc1ccc(S(C)(=O)=O)cc1C(F)(F)F [FEVIPIPRANT] shows Population Healthy Nuclei (%) equal to 79

The molecule listed as C[C@H](N)COC(=O)[C@@H](CCCCN)NC(=O)Cc1c(-c2ccc3ccccc3c2)[nH]c2c1ccc1ccccc12 shows Population Healthy Nuclei (%) equal to 74

The molecule listed as CC(C)c1noc(N2CCC(COc3ccc(-c4ccc(S(C)(=O)=O)cc4)nc3)CC2)n1 [GSK-1292263] shows Population Healthy Nuclei (%) equal to 86

The molecule listed as Cc1noc(-c2ccc(-c3ccc(CC(=O)O)cc3)cc2)c1NC(=O)O[C@H](C)c1ccccc1Cl shows Population Healthy Nuclei (%) equal to 77

The molecule listed as CN(C)C(=O)Cn1cc(-c2ccc(-c3cncc4ccccc34)cc2)cn1 shows Population Healthy Nuclei (%) equal to 80

The molecule listed as N#Cc1cc(F)cc(-c2nc(-c3ccc(F)cn3)no2)c1 shows Population Healthy Nuclei (%) equal to 77

The molecule listed as NCCc1cn(S(=O)(=O)c2c(Cl)nc3sccn23)c2ccccc12.O=C(O)C(=O)O shows Population Healthy Nuclei (%) equal to 78

The molecule listed as Br.CS(=O)(=O)Nc1c(O)ccc2c1CCCC2C1=NCCN1 (centres undefined) shows Population Healthy Nuclei (%) equal to 81

The molecule listed as Cc1onc(-c2ccccc2Cl)c1C(=O)N(C)c1ccc(Cl)cc1 shows Population Healthy Nuclei (%) equal to 84

====

- Tested on: U2OS
- test_summary: Multiplex assay against U2OS
- Assay type: toxicity, cell-based
- condition_set: human, 12 h, 10 µM, compound concentration 10 uM, replicate 2
parameter_measured: Population Mitochondria Different-Phenotype (%)
Respond with the bare value in %.

The molecule listed as CC[C@@H](C)Nc1nc(C)nc2c(-c3ccc(OC)nc3C)c(C)nn12 shows Population Mitochondria Different-Phenotype (%) equal to 7

The molecule listed as CC(C)COc1ccc(CNC(=O)N(Cc2ccc(F)cc2)C2CCN(C)CC2)cc1 shows Population Mitochondria Different-Phenotype (%) equal to 70

The molecule listed as O=C1[C@H](Cc2ccc(O)cc2)N2C(=O)CCN(C(=O)NCc3ccccc3)[C@H]2CN1Cc1cccc2ccccc12 shows Population Mitochondria Different-Phenotype (%) equal to 47

The molecule listed as CCCCC1=NC2(CCCC2)C(=O)N1Cc1ccc(-c2ccccc2-c2nnn[nH]2)cc1 shows Population Mitochondria Different-Phenotype (%) equal to 6

The molecule listed as CC(/C=C1\SC(=S)N(CCCC(=O)Nc2ccc(C(=O)O)c(O)c2)C1=O)=C\c1ccccc1 shows Population Mitochondria Different-Phenotype (%) equal to 1

The molecule listed as COC[C@@H](c1ccc(C(F)(F)F)cc1)N1CCN(C2(C)CCN(C(=O)c3c(C)ncnc3C)CC2)C[C@@H]1C.O=C(O)/C=C\C(=O)O [VICRIVIROC MALEATE] shows Population Mitochondria Different-Phenotype (%) equal to 6

The molecule listed as C[C@H](N)COC(=O)[C@@H](CCCCN)NC(=O)Cc1c(-c2ccc3ccccc3c2)[nH]c2c1ccc1ccccc12 shows Population Mitochondria Different-Phenotype (%) equal to 3

The molecule listed as Br.CS(=O)(=O)Nc1c(O)ccc2c1CCCC2C1=NCCN1 (stereo not drawn) shows Population Mitochondria Different-Phenotype (%) equal to 6

====

Assignment: determine reported Population Membrane Permeable-Phenotype (%) for the given molecules.
- System: HEK-293T
- test_summary: Multiplex assay against HEK293T
- Assay type: toxicity, cell-based
- condition_set: human, 12 h, 10 µM, compound concentration 10 uM, replicate 1
Respond with the bare value in %.

The observed Population Membrane Permeable-Phenotype (%) for CCCCC(=O)N(Cc1ccc(-c2ccccc2-c2nnn[nH]2)cc1)[C@H](C(=O)O)C(C)C when tested with HEK-293T stands at 0

The observed Population Membrane Permeable-Phenotype (%) for N#Cc1c(Oc2cccc(OS(=O)(=O)CCCC(F)(F)F)c2)cccc1C(F)(F)F when tested with HEK-293T stands at 0

The observed Population Membrane Permeable-Phenotype (%) for Cc1cccc(NC(=O)CN2CCC(c3ccccn3)CC2)c1.Cl.Cl when tested with HEK-293T stands at 0

The observed Population Membrane Permeable-Phenotype (%) for CCCCC1=NC2(CCCC2)C(=O)N1Cc1ccc(-c2ccccc2-c2nnn[nH]2)cc1 [IRBESARTAN] when tested with HEK-293T stands at 2

The observed Population Membrane Permeable-Phenotype (%) for C[C@H](N)COC(=O)[C@@H](CCCCN)NC(=O)Cc1c(-c2ccc3ccccc3c2)[nH]c2c1ccc1ccccc12 when tested with HEK-293T stands at 0

====

- Test system: U2OS
- test_summary: Multiplex assay against U2OS
- Assay type: toxicity, cell-based
- condition_set: human, 12 h, 10 µM, compound concentration 10 uM, replicate 1
parameter_measured: Population Tubulin-Different-Phenotype (%)
Respond with the bare value in %.

The molecule listed as Cc1c(CC(=O)O)c2cccnc2n1Cc1ccc(S(C)(=O)=O)cc1C(F)(F)F shows Population Tubulin-Different-Phenotype (%) equal to 1

The molecule listed as CC(/C=C1\SC(=S)N(CCCC(=O)Nc2ccc(C(=O)O)c(O)c2)C1=O)=C\c1ccccc1 shows Population Tubulin-Different-Phenotype (%) equal to 4

The molecule listed as CC(C)COc1ccc(CNC(=O)N(Cc2ccc(F)cc2)C2CCN(C)CC2)cc1 shows Population Tubulin-Different-Phenotype (%) equal to 77

The molecule listed as N#Cc1cc(F)cc(-c2nc(-c3ccc(F)cn3)no2)c1 shows Population Tubulin-Different-Phenotype (%) equal to 2

The molecule listed as CCCOc1ccc2[nH]cc(C3=CCNCC3)c2n1.Cl shows Population Tubulin-Different-Phenotype (%) equal to 3

====

- Test system: Fibroblast
- test_summary: Multiplex assay against human fibroblast
- Format: toxicity, cell-based
- condition_set: 12 h, 10 µM, compound concentration 10 uM, replicate 2
Assignment: determine reported Population Hoechst High Intensity Objects (%) for the given molecules.
Respond with the bare value in %.

The molecule listed as Cc1cnc(-c2cc(N3CCN(C(=O)CCS(C)(=O)=O)CC3)ncc2Cl)c(C)c1 shows Population Hoechst High Intensity Objects (%) equal to 1

The molecule listed as Cc1onc(-c2ccccc2Cl)c1C(=O)N(C)c1ccc(Cl)cc1 shows Population Hoechst High Intensity Objects (%) equal to 3

The molecule listed as Cc1noc(-c2ccc(-c3ccc(CC(=O)O)cc3)cc2)c1NC(=O)O[C@H](C)c1ccccc1Cl shows Population Hoechst High Intensity Objects (%) equal to 6

The molecule listed as CN1CCN(c2cc(-c3ccccc3)nc(N)n2)CC1 shows Population Hoechst High Intensity Objects (%) equal to 7

The molecule listed as CN(C)C(=O)Cn1cc(-c2ccc(-c3cncc4ccccc34)cc2)cn1 shows Population Hoechst High Intensity Objects (%) equal to 9

The molecule listed as CCCCCC(O)/C=C/[C@H]1C(=O)CC(O)C1C/C=C\CCCC(=O)O (stereo partly specified) shows Population Hoechst High Intensity Objects (%) equal to 2

The molecule listed as Cc1cccc(NC(=O)CN2CCC(c3ccccn3)CC2)c1.Cl.Cl shows Population Hoechst High Intensity Objects (%) equal to 2

The molecule listed as Cl.N=C(N)NC(=O)Cc1c(Cl)cccc1Cl [GUANFACINE HYDROCHLORIDE] shows Population Hoechst High Intensity Objects (%) equal to 10

The molecule listed as COC[C@@H](c1ccc(C(F)(F)F)cc1)N1CCN(C2(C)CCN(C(=O)c3c(C)ncnc3C)CC2)C[C@@H]1C.O=C(O)/C=C\C(=O)O [VICRIVIROC MALEATE] shows Population Hoechst High Intensity Objects (%) equal to 20

The molecule listed as CC(=O)Nc1cccc2c1c(Sc1ccc(Cl)cc1)c(C)n2CC(=O)O shows Population Hoechst High Intensity Objects (%) equal to 4

The molecule listed as Cl.NCCc1ccc(O)c(O)c1 [DOPAMINE HYDROCHLORIDE] shows Population Hoechst High Intensity Objects (%) equal to 4

The molecule listed as CC(/C=C1\SC(=S)N(CCCC(=O)Nc2ccc(C(=O)O)c(O)c2)C1=O)=C\c1ccccc1 shows Population Hoechst High Intensity Objects (%) equal to 4

The molecule listed as Cc1c(CC(=O)O)c2cccnc2n1Cc1ccc(S(C)(=O)=O)cc1C(F)(F)F shows Population Hoechst High Intensity Objects (%) equal to 5

The molecule listed as CC(C)c1noc(N2CCC(COc3ccc(-c4ccc(S(C)(=O)=O)cc4)nc3)CC2)n1 shows Population Hoechst High Intensity Objects (%) equal to 2

The molecule listed as COc1cccc2c1c(NS(=O)(=O)c1ccc(Cl)s1)nn2Cc1cccc(CNC(=O)C(C)(C)O)c1 shows Population Hoechst High Intensity Objects (%) equal to 7

The molecule listed as Br.CS(=O)(=O)Nc1c(O)ccc2c1CCCC2C1=NCCN1 (stereo unspecified) shows Population Hoechst High Intensity Objects (%) equal to 0

The molecule listed as CCc1cc2cc(NS(=O)(=O)c3ccc(C#N)cc3)ccc2n(CC)c1=O shows Population Hoechst High Intensity Objects (%) equal to 5

The molecule listed as C[C@H](N)COC(=O)[C@@H](CCCCN)NC(=O)Cc1c(-c2ccc3ccccc3c2)[nH]c2c1ccc1ccccc12 shows Population Hoechst High Intensity Objects (%) equal to 7

The molecule listed as CN[C@@H](C)C(=O)N[C@H](C(=O)N1CCC[C@H]1C(=O)Nc1snnc1-c1ccccc1)C1CCCCC1 shows Population Hoechst High Intensity Objects (%) equal to 10

The molecule listed as CC(C)(C)c1cc(NC(=O)Nc2ccc(-c3cn4c(n3)sc3cc(OCCN5CCOCC5)ccc34)cc2)no1 shows Population Hoechst High Intensity Objects (%) equal to 5

The molecule listed as CCCCC1=NC2(CCCC2)C(=O)N1Cc1ccc(-c2ccccc2-c2nnn[nH]2)cc1 shows Population Hoechst High Intensity Objects (%) equal to 7

The molecule listed as O=C(CCCc1ccccc1)Nc1nc2ccccc2c(=O)s1 shows Population Hoechst High Intensity Objects (%) equal to 12

The molecule listed as CC(C)COc1ccc(CNC(=O)N(Cc2ccc(F)cc2)C2CCN(C)CC2)cc1 shows Population Hoechst High Intensity Objects (%) equal to 4

The molecule listed as CCCCC(=O)N(Cc1ccc(-c2ccccc2-c2nnn[nH]2)cc1)[C@H](C(=O)O)C(C)C shows Population Hoechst High Intensity Objects (%) equal to 3

The molecule listed as O=C(NCCN1CCC(n2c(=O)[nH]c3cc(Cl)ccc32)CC1)c1ccc(F)cc1 [HALOPEMIDE] shows Population Hoechst High Intensity Objects (%) equal to 4

The molecule listed as N#Cc1cc(F)cc(-c2nc(-c3ccc(F)cn3)no2)c1 shows Population Hoechst High Intensity Objects (%) equal to 8

The molecule listed as Cc1sc2c(c1C)C(c1ccc(Cl)cc1)=N[C@@H](CC(=O)NCCCCCCCCNC(=O)COc1cccc3c1C(=O)N(C1CCC(=O)NC1=O)C3=O)c1nnc(C)n1-2 (stereo partly specified) shows Population Hoechst High Intensity Objects (%) equal to 17

The molecule listed as N#Cc1c(Oc2cccc(OS(=O)(=O)CCCC(F)(F)F)c2)cccc1C(F)(F)F shows Population Hoechst High Intensity Objects (%) equal to 7

The molecule listed as O=C1[C@H](Cc2ccc(O)cc2)N2C(=O)CCN(C(=O)NCc3ccccc3)[C@H]2CN1Cc1cccc2ccccc12 shows Population Hoechst High Intensity Objects (%) equal to 9

The molecule listed as CC[C@@H](C)Nc1nc(C)nc2c(-c3ccc(OC)nc3C)c(C)nn12 shows Population Hoechst High Intensity Objects (%) equal to 8

The molecule listed as CCCOc1ccc2[nH]cc(C3=CCNCC3)c2n1.Cl shows Population Hoechst High Intensity Objects (%) equal to 2
